Listed compounds paired with reported inhibition at 0.25 h, 10 µM
Molecular target: CYP3A4 (Homo sapiens, UniProt P08684)
Sequence (P08684 whole entry): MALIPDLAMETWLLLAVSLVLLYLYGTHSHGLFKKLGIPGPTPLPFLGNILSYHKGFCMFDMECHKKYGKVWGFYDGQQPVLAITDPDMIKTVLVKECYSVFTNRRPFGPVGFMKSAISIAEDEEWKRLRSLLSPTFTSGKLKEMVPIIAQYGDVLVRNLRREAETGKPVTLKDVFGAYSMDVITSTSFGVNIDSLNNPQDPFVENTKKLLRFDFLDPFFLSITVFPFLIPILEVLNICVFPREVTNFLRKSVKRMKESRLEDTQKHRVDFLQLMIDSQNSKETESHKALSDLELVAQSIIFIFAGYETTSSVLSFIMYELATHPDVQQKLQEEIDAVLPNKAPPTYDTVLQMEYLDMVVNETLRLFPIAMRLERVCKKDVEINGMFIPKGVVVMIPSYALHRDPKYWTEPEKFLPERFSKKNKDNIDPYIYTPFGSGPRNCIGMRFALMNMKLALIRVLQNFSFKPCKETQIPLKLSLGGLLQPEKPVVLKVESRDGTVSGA
Test: Inhibition of CYP3A4 at 10 uM after 15 mins
Type: ADME

{"columns": ["input smiles", "inhibition at 0.25 h, 10 µM"],
 "data": [
  ["CC(=O)NCCn1ccc2ncnc(Nc3ccc(Oc4cccc5sncc45)c(Cl)c3)c21", "57%"],
  ["CC(C)(C)C(=O)NCCn1ccc2ncnc(Nc3ccc(Oc4cccc5sncc45)c(Cl)c3)c21", "33.5%"],
  ["CC(C)(C(=O)NCCn1ccc2ncnc(Nc3ccc(Oc4cccc5sncc45)c(Cl)c3)c21)S(C)(=O)=O", "49.9%"],
  ["CC(C)(O)C(=O)NCCn1ccc2ncnc(Nc3ccc(Oc4cccc5sncc45)c(Cl)c3)c21", "62.6%"],
  ["O=C(NCCn1ccc2ncnc(Nc3ccc(Oc4cccc5sncc45)c(Cl)c3)c21)[C@@H]1CCCN1", "35%"],
  ["OCCn1ccc2ncnc(Nc3ccc(Oc4cccc5sncc45)c(Cl)c3)c21", "47.2%"],
  ["CC(C)(N)C(=O)NCCn1ccc2ncnc(Nc3ccc(Oc4cccc5sncc45)c(Cl)c3)c21", "21.2%"]
]}

----------
Target: Receptor tyrosine-protein kinase erbB-2 (Homo sapiens, UniProt P04626)
Sequence (P04626 whole entry): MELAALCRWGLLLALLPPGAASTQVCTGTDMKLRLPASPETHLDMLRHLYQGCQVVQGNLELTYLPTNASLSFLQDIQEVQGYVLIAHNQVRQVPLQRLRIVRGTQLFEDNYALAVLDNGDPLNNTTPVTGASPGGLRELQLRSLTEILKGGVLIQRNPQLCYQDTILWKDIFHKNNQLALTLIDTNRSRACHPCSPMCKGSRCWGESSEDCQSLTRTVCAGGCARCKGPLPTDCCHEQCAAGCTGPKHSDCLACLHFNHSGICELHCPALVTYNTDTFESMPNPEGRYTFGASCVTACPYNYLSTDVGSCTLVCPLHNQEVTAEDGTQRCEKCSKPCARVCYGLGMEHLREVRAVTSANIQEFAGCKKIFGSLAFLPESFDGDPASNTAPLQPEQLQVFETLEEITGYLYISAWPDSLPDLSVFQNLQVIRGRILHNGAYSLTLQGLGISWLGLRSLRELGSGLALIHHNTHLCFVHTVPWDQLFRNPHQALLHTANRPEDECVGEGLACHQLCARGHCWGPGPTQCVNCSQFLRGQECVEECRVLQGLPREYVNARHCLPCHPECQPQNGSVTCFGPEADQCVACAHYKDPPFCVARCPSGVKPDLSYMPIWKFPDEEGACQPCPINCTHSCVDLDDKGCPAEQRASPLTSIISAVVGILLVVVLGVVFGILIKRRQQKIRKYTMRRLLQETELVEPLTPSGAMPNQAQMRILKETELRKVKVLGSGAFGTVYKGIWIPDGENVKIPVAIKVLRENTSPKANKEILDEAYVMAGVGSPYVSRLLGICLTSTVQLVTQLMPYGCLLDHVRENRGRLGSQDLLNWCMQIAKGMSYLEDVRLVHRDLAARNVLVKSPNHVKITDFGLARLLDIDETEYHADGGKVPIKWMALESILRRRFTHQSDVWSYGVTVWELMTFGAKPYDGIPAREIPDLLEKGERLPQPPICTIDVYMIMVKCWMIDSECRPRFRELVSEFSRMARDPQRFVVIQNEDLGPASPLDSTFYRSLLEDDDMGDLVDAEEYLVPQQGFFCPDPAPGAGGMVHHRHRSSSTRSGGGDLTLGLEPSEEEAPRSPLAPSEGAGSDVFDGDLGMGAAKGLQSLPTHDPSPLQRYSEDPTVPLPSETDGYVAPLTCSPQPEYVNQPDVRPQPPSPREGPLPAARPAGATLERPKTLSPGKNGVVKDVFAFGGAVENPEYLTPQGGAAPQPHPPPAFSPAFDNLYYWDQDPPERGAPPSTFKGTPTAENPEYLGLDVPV
Assay: Inhibition of N-terminus peptide-tagged human recombinant HER2 expressed using baculovirus infection system using [gamma-33P]-ATP preincubated with compound for 5 mins measured after 10 mins by scintillation counting
pIC50: −log10 of the molar value.

{"columns": ["input smiles", "pIC50"],
 "data": [
  ["O=C1Cc2ccc(Oc3ccc(Nc4ncnc5ccn(CCO)c45)cc3Cl)cc2N1", 6.89],
  ["O=C(NCCn1ccc2ncnc(Nc3ccc(Oc4cccc5sncc45)c(Cl)c3)c21)[C@@H]1CCCN1", 9.04],
  ["O=C1Cc2cc(Oc3ccc(Nc4ncnc5ccn(CCO)c45)cc3Cl)ccc2N1", 7.55],
  ["O=C1Cc2c(cccc2Oc2ccc(Nc3ncnc4ccn(CCO)c34)cc2Cl)N1", 8.80],
  ["OCCn1ccc2ncnc(Nc3ccc(Oc4cccc5sccc45)c(Cl)c3)c21", 8.22],
  ["OCCn1ccc2ncnc(Nc3ccc(Oc4cccc5sncc45)c(Cl)c3)c21", 8.68],
  ["CC(C)(C)NC(=O)c1cccc(Oc2ccc(Nc3ncnc4ccn(CCO)c34)cc2Cl)c1", 8.64],
  ["O=C1NCc2c(Oc3ccc(Nc4ncnc5ccn(CCO)c45)cc3Cl)cccc21", 6.82],
  ["CC(C)(O)C(=O)NCCn1ccc2ncnc(Nc3ccc(Oc4cccc5sncc45)c(Cl)c3)c21", 8.66],
  ["O=C1NCc2ccc(Oc3ccc(Nc4ncnc5ccn(CCO)c45)cc3Cl)cc21", 8.89],
  ["O=C1NCc2cc(Oc3ccc(Nc4ncnc5ccn(CCO)c45)cc3Cl)ccc21", 7.74],
  ["OCCn1ccc2ncnc(Nc3ccc(Oc4cccc5[nH]ncc45)c(Cl)c3)c21", 8.77],
  ["OCCn1ccc2ncnc(Nc3ccc(Oc4cccc5[nH]ccc45)c(Cl)c3)c21", 8.60],
  ["CC(C)(C)C(=O)NCCn1ccc2ncnc(Nc3ccc(Oc4cccc5sncc45)c(Cl)c3)c21", 8.21],
  ["CC(=O)NCCn1ccc2ncnc(Nc3ccc(Oc4cccc5sncc45)c(Cl)c3)c21", 8.80],
  ["CC(C)(C(=O)NCCn1ccc2ncnc(Nc3ccc(Oc4cccc5sncc45)c(Cl)c3)c21)S(C)(=O)=O", 8.70],
  ["O=C1Cc2cccc(Oc3ccc(Nc4ncnc5ccn(CCO)c45)cc3Cl)c2N1", 8.82],
  ["Cn1ncc2c(Oc3ccc(Nc4ncnc5ccn(CCO)c45)cc3Cl)cccc21", 8.68],
  ["O=C1NCc2cccc(Oc3ccc(Nc4ncnc5ccn(CCO)c45)cc3Cl)c21", 8.60],
  ["CC(C)(CO)C(=O)NCCn1ccc2ncnc(Nc3ccc(Oc4cccc5sncc45)c(Cl)c3)c21", 8.48],
  ["CC(C)(N)C(=O)NCCn1ccc2ncnc(Nc3ccc(Oc4cccc5sncc45)c(Cl)c3)c21", 9.01]
]}
